B1: ATL3 (parent)
chain: QELEEEIKELYENFCKHNGSKNVF

Variants of: B1
test_description: protein stability index of a GFP-peptide fusion (GPS, HEK-293T) (PSI 1-6); higher = more stable;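 further: lentivirally expressed fusions sorted by FACS into six bins by GFP to DsRed ratio, PSI derived from sequencing read proportions per bin multiplied by bin number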
condition_set: c terminus: a fixed tail appended
# binarize protein stability index: threshold 3 inclusive, high side true, low side false

Example results:
sequence_data: MELEEEIKELYENFCKHNGSKNVF [Q1M]
answer_label: false
--
sequence_data: QELEEEIKELCENFCKHNGSKNVF [Y11C]
answer_label: true
--
sequence_data: QELEEEIIELYENFCKHNGSKNVF [K8I]
answer_label: false

[ask] Please tell me: is the variant QELEEEIKELYENFCKHNGSKKVF [N22K] at or over 3 in terms of protein stability index?
[reply] true

[ask] Please tell me: is the variant QELEEECKELYENFCKHNGSKNVF [I7C] at or over 3 in terms of protein stability index?
[reply] true

[ask] Please tell me: is the variant QELEEEIKELYEDFCKHNGSKNVF [N13D] at or over 3 in terms of protein stability index?
[reply] true

[ask] Please tell me: is the variant QELEEEIKELYENFIKHNGSKNVF [C15I] at or over 3 in terms of protein stability index?
[reply] false

[ask] Please tell me: is the variant QELEEEIKELYENFCKHNGSKHVF [N22H] at or over 3 in terms of protein stability index?
[reply] false

[ask] Please tell me: is the variant QELEEEISELYENFCKHNGSKNVF [K8S] at or over 3 in terms of protein stability index?
[reply] true

[ask] Please tell me: is the variant QELEEEIKQLYENFCKHNGSKNVF [E9Q] at or over 3 in terms of protein stability index?
[reply] false

[ask] Please tell me: is the variant QELEEEIKELYENFCKHNGTKNVF [S20T] at or over 3 in terms of protein stability index?
[reply] false

[ask] Please tell me: is the variant QELEEEIKELYENFCNHNGSKNVF [K16N] at or over 3 in terms of protein stability index?
[reply] false

[ask] Please tell me: is the variant QYLEEEIKELYENFCKHNGSKNVF [E2Y] at or over 3 in terms of protein stability index?
[reply] false

[ask] Please tell me: is the variant EELEEEIKELYENFCKHNGSKNVF [Q1E] at or over 3 in terms of protein stability index?
[reply] true

[ask] Please tell me: is the variant QELEEEIKELYENFCQHNGSKNVF [K16Q] at or over 3 in terms of protein stability index?
[reply] true

[ask] Please tell me: is the variant QELEEVIKELYENFCKHNGSKNVF [E6V] at or over 3 in terms of protein stability index?
[reply] false

[ask] Please tell me: is the variant QELEEEIKELYENFCKHVGSKNVF [N18V] at or over 3 in terms of protein stability index?
[reply] false

[ask] Please tell me: is the variant QELEEEIKELYENFCKFNGSKNVF [H17F] at or over 3 in terms of protein stability index?
[reply] true

[ask] Please tell me: is the variant QELEEEIKELYENFCKHNGPKNVF [S20P] at or over 3 in terms of protein stability index?
[reply] true
